# TEST_TARGET: human Gal-1 (hGal-1) (Homo sapiens, UniProt P09382)
# Sequence (P09382 2-135 limits assumed): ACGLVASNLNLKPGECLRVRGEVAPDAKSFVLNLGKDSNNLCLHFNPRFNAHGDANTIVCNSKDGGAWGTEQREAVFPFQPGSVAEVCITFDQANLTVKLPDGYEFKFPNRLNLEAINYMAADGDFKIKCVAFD
# ASSAY_PROCEDURE: Competitive binding assay: biotinylated hGal-1 to microplate-adsorbed asialofetuin (ASF)
# EXPERIMENTAL_PARAMETERS: Activities on hGal-1; binding to ASF-coated plates, 3 hours at 4° C.; mean values; read-out: Gal-1 IC50
pIC50: −log10 of the molar value.
Each entry below carries its reported pIC50.
MEASUREMENT_NAME: pIC50

COMPOUND	MEASUREMENT_NAME	OBSERVED
CO[C@@H]1[C@@H](n2cc(-c3ccc(C)c(F)c3F)nn2)[C@@H](O)[C@@H](CO)O[C@@H]1CC1=NOC2(C1)CC1CCC(C1)C2 (stereo partly shown) [Example 1.82]	pIC50	5.71
CO[C@@H]1[C@@H](n2cc(-c3cc(F)c(F)c(F)c3)nn2)[C@@H](O)[C@@H](CO)O[C@@H]1CC1=NOC2(CCC(C)(C)CC2)C1 [Example 1.29]	pIC50	5.66
CO[C@@H]1[C@@H](n2cc(-c3ccc(F)c(F)c3F)nn2)[C@@H](O)[C@@H](CO)O[C@@H]1CC1=NO[C@]2(CC[C@@H](C(C)(C)O)CC2)C1 [Example 1.53]	pIC50	5.92
CCOC(=O)N[C@H]1CC[C@]2(CC1)CC(C[C@H]1O[C@H](CO)[C@H](O)[C@H](n3cc(-c4ccc(Cl)c(F)c4F)nn3)[C@H]1OC)=NO2 [Example 2.11]	pIC50	6.47

Data provenance: patent US20230295182A1
